The entries below come with measured upper right quadrant, percent of cells AF647+ / hTcRβ-PerCP+ values attached.
# TGT: T1, human CD3e (T-cell surface glycoprotein CD3 epsilon chain) (human, UniProt P07766 23-207)
# T1 construct: Target of the anti-hCD3e antibodies on human PBMC, Jurkat cells and cells expressing human CD3e; on T cells it is part of the CD3/TCR complex; also called hCD3e; CD3e on human PBMC
# TEST: flow cytometry, human PBMC, antibody 0.1 µg/mL, anti-human IgG Fc-Alexa Fluor647 (1:500), anti-hTcRβ-PerCP (1:30)
Report the value in % with no unit label.

BINDER: 1B1-H3K3-IgG1-LALA (antibody, V domains shown, Humanized; human IgG1 with LALA mutations; also called H3K3 (humanized 1B1)) VH: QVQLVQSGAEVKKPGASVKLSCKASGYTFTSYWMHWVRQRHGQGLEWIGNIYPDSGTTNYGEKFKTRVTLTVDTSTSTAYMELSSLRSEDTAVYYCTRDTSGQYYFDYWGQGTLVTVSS VL: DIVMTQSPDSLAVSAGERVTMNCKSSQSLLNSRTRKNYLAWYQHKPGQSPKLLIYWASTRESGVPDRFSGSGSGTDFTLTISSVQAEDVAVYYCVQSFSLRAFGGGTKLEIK
UNITS: %
ASSAY_RESULT: 54.5

The record that follows has no upper right quadrant, percent of cells AF647+ / hTcRβ-PerCP+ shown yet.
INPUT: Need upper right quadrant, percent of cells AF647+ / hTcRβ-PerCP+ of 1B1-H1K3-IgG1-LALA (antibody, V domains shown, Humanized; human IgG1 with LALA mutations; also called H1K3 (humanized 1B1)) VH: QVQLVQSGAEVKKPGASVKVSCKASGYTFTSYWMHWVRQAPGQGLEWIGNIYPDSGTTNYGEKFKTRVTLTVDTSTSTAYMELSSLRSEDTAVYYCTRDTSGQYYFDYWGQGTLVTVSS VL: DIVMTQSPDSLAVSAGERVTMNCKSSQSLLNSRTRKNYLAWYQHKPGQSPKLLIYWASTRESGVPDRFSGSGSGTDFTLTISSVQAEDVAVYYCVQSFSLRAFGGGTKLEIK , thanks.
OUTPUT: 50
